As a worked illustration, we turn to IC50 data collected for Prothrombin (Homo sapiens, UniProt P00734).
measured.quantity: IC50 (µM)

* COC(=O)[C@H](NC(=O)[C@@H]1CCC[C@H]1C(=O)NCc1ccc(C(=N)N)cc1)c1ccccc1 | 20.4
* CCN(C(=O)C1=CCC[C@H]1C(=O)NCc1ccc(C(=N)N)cc1)c1ccccc1 | 0.98
* N=C(N)c1ccc(CNC(=O)[C@@H]2CCC=C2C(=O)NC2CCCCC2)cc1 | 1.51

A. N=C(N)c1ccc(CNC(=O)[C@@H]2CCC=C2C(=O)NCC2CCCCC2)cc1
B. N=C(N)c1ccc(CNC(=O)[C@@H]2CCC[C@H]2C(=O)NCc2ccccc2)cc1
Please indicate which entry, A or B , has the lower recorded IC50 value. Output the label that corresponds to your choice. A
(A: 9.33 µM, B: 44.7 µM)

Value source: ChEMBL document CHEMBL1132927
